molecular target: hα2A receptor (Homo sapiens, UniProt P08913); construct: expressed in transfected cells; host or cells: CHO cells, stably transfected; membrane preparation; test: Radioligand binding experiment for α2A-adrenoceptor ([3H]raulwolscine, CHO cell membranes); details: [3H]raulwolscine binding, read-out: h-α2A pIC50 (converted)
Quantity kind: IC50 (nM)

a: C/C(=C\c1ccccc1)CN1CCC(Nc2nccn(CC(=O)NCc3ccc(F)cc3)c2=O)CC1 [1-55]
b: C/C(=C\c1ccccc1)CN1CCN(c2nccn(CC(=O)C(C)(C)C)c2=O)CC1 [14-4]
c: C/C(=C\c1ccccc1)CN1CCN(c2nccn(Cc3ccc4ccccc4c3)c2=O)CC1 [12-7]
d: C/C(=C\c1ccccc1)CN1CCC(Nc2nccn(Cc3ccc(NCCN(C)C)cc3)c2=O)CC1 [1-104]
Form: Sort by [IC50] Order [ ascending ] I'd appreciate it if you listed the labels in the requested order.
d, a, c, b

###

Biological target: hα2C receptor (Homo sapiens, UniProt P18825)
Construct: expressed in transfected cells; host or cells: CHO cells, stably transfected; membrane preparation
Sequence (P18825 1-462): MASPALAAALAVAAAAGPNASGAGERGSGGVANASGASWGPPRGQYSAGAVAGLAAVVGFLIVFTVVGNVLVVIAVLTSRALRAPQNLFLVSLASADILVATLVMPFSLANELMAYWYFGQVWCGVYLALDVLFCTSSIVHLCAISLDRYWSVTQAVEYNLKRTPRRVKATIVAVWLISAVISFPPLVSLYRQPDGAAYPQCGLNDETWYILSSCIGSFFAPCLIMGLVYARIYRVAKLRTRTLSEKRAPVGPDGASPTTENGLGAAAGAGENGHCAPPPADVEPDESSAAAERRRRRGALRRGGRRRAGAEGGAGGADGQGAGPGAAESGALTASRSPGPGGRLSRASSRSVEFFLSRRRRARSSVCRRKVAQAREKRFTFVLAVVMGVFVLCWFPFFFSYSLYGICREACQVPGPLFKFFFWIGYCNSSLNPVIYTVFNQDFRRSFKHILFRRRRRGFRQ
Test: Radioligand binding experiment for α2C-adrenoceptor ([3H]raulwolscine, CHO cell membranes)
Conditions: [3H]raulwolscine binding, read-out: h-α2C pIC50 (converted)
Quantity kind: IC50 (nM)

In [3]: df
Out[3]:
                              smiles_record                             system_tested  reported_result
0  COc1ccc(CNC(=O)Cn2ccnc(NC3CCN(C/C(C)=C/c4ccccc4)CC3)c2=O)cc1  hα2C receptor (Homo sapiens, UniProt P18825)             12.6

I: COC(=O)CCNC(=O)Cn1ccnc(NC2CCN(C/C(C)=C/c3ccccc3)CC2)c1=O
II: COC(=O)c1ccc(Cn2ccnc(NC3CCN(C/C(C)=C/c4ccccc4)CC3)c2=O)cc1
III: C/C(=C\c1ccccc1)CN1CCN(c2nccn(CC(=O)N(C)C)c2=O)CC1
IV: C/C(=C\c1ccccc1)CN1CCC(Nc2nccn(-c3ccc(F)cc3)c2=O)CC1
Please list these compounds in decreasing order of IC50. # output: labels, in the requested order
III, II, IV, I

###

molecular target: 5HT-Transporter (Homo sapiens, UniProt P31645); construct: Human platelet membranes (Oceanix Biosciences Corporation, Hanover, Md., USA) were thawed; tissue Oceanix Biosciences Corporation, Hanover, Md., USA; host or cells: human platelet membranes; experiment: Binding experiment for the 5HT-transporter ([3H]paroxetine, human platelet membranes); conditions: [3H]paroxetine 0.5 nM, read-out: h-5HTT pIC50 (converted)
Sequence (P31645 whole entry): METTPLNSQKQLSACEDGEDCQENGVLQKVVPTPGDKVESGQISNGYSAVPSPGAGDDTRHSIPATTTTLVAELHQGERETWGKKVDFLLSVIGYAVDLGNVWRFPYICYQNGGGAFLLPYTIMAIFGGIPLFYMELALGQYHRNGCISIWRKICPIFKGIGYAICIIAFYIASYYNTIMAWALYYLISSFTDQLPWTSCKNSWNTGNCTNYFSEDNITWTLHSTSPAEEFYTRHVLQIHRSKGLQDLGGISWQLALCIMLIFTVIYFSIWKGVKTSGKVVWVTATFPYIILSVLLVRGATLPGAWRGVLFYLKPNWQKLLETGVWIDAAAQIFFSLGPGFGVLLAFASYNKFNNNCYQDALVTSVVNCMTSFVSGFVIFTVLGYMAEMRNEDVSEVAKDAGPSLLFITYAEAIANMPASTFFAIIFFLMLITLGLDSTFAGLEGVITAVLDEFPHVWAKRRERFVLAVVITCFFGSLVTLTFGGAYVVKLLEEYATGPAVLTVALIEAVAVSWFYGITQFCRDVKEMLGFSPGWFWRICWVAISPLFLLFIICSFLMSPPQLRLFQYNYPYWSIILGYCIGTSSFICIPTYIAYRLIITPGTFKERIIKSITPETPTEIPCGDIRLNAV
Quantity kind: IC50

Some molecules with known IC50 results, for comparison:
>>> df
                                   molecule                             system_tested  quantity_kind  reported_result
0  COCCn1ccnc(NC2CCN(C/C=C/c3ccccc3)CC2)c1=O [16-9]  5HT-Transporter (Homo sapiens, UniProt P31645)           IC50          > 10 µM
1  CC(=O)Cn1ccnc(NC2CCN(C/C=C/c3ccccc3)CC2)c1=O [16-24]  5HT-Transporter (Homo sapiens, UniProt P31645)           IC50          > 10 µM

Look up and report IC50, with 5HT-Transporter (Homo sapiens, UniProt P31645) as system, for O=c1c(NC2CCN(C/C=C/c3ccccc3)CC2)nccn1Cc1ccncc1 [16-20]
> 10 µM

###

target: 5HT-Transporter (Homo sapiens); construct: Human platelet membranes (Oceanix Biosciences Corporation, Hanover, Md., USA) were thawed; tissue Oceanix Biosciences Corporation, Hanover, Md., USA; host or cells: human platelet membranes; assay: Binding experiment for the 5HT-transporter ([3H]paroxetine, human platelet membranes); conditions: [3H]paroxetine 0.5 nM, read-out: h-5HTT pIC50 (converted)
Parameter IC50: see the listing below.
Numeric only. Scale: µM

Please indicate IC50 recorded for C/C(=C\c1ccccc1)CN1CCC(Nc2nccn(CC(=O)N3CCN(c4ccccc4)CC3)c2=O)CC1 [2-26]
0.794

Tell me its IC50 given COCCOCCn1ccnc(N(C)C2CCN(C/C(C)=C/c3ccccc3)CC2)c1=O [15-5] as the entry.
2

###

Target: hα2C receptor (Homo sapiens)
Construct: expressed in transfected cells; host or cells: CHO cells, stably transfected; membrane preparation
Sequence (P18825 1-462): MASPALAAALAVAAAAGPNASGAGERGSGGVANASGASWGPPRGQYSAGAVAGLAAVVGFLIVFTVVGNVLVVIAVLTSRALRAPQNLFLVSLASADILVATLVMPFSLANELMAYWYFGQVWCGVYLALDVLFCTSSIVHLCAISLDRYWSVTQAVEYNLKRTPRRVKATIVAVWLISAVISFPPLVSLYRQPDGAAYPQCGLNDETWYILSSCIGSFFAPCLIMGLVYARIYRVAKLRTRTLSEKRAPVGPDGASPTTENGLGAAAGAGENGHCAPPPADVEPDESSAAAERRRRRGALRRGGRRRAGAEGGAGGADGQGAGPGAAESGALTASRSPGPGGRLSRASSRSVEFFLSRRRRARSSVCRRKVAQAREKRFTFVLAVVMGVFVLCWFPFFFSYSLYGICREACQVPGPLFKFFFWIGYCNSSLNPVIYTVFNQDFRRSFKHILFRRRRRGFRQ
Assay: Radioligand binding experiment for α2C-adrenoceptor ([3H]raulwolscine, CHO cell membranes)
Conditions: [3H]raulwolscine binding, read-out: h-α2C pIC50 (converted)
Quantity kind: IC50 (nM)

>>> df
                                   molecule                 system_tested  reported_result
0  C/C(=C\c1ccccc1)CN1CCC(Nc2nccn(Cc3ccccc3C(F)(F)F)c2=O)CC1 [5-21]  hα2C receptor (Homo sapiens)             25.1
1  COC(=O)CN(C)Cc1ccc(-n2ccnc(NC3CCN(C/C(C)=C/c4ccccc4)CC3)c2=O)cc1 [1-99]  hα2C receptor (Homo sapiens)             5.01
2  C#CCN(C)C(=O)Cn1ccnc(NC2CCN(C/C(C)=C/c3ccccc3)CC2)c1=O [1-28]  hα2C receptor (Homo sapiens)             5.01
3  C/C(=C\c1ccccc1)CN1CCC(Nc2nccn(-c3ccc(C(=O)O)cc3)c2=O)CC1 [3-4]  hα2C receptor (Homo sapiens)             79.4
4  C/C(=C\c1ccccc1)CN1CCN(c2nccn(Cc3ccc(CNC(=O)OC(C)(C)C)cc3)c2=O)CC1 [8-4]  hα2C receptor (Homo sapiens)             79.4

a: C/C(=C\c1ccccc1)CN1CCC(Nc2nccn(CC(=O)C34CC5CC(CC(C5)C3)C4)c2=O)CC1 [7-10]
b: C/C(=C\c1ccccc1)CN1CCN(c2nccn(CCCNC(=O)OC(C)(C)C)c2=O)CC1 [8-3]
c: C/C(=C\c1ccccc1)CN1CCN(c2nccn(Cc3ccc4ccccc4c3)c2=O)CC1 [12-7]
d: C/C(=C\c1ccccc1)CN1CCC(Nc2nccn(-c3ccc(C=O)cc3)c2=O)CC1 [5-6]
e: C/C(=C\c1ccccc1)CN1CCC(Nc2nccn(CC(=O)N(CCN3CCOCC3)Cc3ccc(F)cc3)c2=O)CC1 [1-151]
With regard to IC50, arrange the entries in ascending order, please. Answer format: list of labels, ordered as asked.
e, d, a, b, c
(e: 2 nM, d: 6.31 nM, a: 10 nM, b: 79.4 nM, c: 126 nM)

###

Biological target: hα2A receptor (Homo sapiens, UniProt P08913)
Construct: expressed in transfected cells; host or cells: CHO cells, stably transfected; membrane preparation
Sequence (P08913 1-465): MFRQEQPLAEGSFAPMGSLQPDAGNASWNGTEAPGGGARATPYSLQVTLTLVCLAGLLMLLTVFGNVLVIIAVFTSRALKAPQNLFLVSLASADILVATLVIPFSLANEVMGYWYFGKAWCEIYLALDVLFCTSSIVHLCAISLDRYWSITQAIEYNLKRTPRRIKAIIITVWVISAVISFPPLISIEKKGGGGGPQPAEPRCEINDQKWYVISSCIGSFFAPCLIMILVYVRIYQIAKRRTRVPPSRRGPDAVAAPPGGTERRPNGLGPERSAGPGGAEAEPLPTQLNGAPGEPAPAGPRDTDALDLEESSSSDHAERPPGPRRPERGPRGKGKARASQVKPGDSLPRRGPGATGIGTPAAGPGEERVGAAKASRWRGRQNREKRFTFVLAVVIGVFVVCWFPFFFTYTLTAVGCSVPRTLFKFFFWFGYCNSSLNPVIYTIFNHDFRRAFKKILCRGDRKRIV
Experiment: Radioligand binding experiment for α2A-adrenoceptor ([3H]raulwolscine, CHO cell membranes)
Conditions: [3H]raulwolscine binding, read-out: h-α2A pIC50 (converted)
Quantity kind: IC50 (nM)

P: C/C(=C\c1ccccc1)CN1CCC(Nc2nccn(CC(=O)NCCCN3CCCC3=O)c2=O)CC1
Q: COCCNC(=O)c1ccc(-n2ccnc(NC3CCN(C/C(C)=C/c4ccccc4)CC3)c2=O)cc1
Two entries are listed, P and Q . Which one carries the higher IC50? Give the label under which the chosen entry appears.
P
(P: 316 nM, Q: 100 nM)
